Where do the numbers come from? From patent US20260116921A1.

Biological target: T1, IL-23R (human, UniProt Q5VWK5 24-629)
T1 sequence (looked up): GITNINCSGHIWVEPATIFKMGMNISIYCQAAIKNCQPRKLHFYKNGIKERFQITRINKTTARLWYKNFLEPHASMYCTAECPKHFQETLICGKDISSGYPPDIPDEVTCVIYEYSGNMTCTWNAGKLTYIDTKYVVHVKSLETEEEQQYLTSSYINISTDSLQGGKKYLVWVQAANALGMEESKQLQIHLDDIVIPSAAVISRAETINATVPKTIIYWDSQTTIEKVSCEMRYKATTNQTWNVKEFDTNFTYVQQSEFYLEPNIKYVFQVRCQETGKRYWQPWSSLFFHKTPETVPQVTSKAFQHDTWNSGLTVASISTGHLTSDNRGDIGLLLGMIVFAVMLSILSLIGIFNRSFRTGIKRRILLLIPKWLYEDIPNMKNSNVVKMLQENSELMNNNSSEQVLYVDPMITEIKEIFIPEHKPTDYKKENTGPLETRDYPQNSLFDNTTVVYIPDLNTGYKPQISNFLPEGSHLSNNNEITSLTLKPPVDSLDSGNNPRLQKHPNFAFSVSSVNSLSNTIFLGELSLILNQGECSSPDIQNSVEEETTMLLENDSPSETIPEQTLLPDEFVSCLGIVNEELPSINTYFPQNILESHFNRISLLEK
Test: cell-based or functional assay
Numbered stars: 1 amine (or outer) side, 2 acyl side, 3 side chain; on linkers, the order of the positions; unused ones are H or OH. Bridge positions count the residues as written; N and C are the ends. Square brackets hold non-standard residues; d marks the D form. Trp(7-nPr) = CCCc1cccc2c(C[C@H](N[*:1])C(=O)[*:2])c[nH]c12; 2Nal = N[C@@H](Cc1ccc2ccccc2c1)C(=O)O; AEF = NCCOc1ccc(C[C@H](N)C(=O)O)cc1; Pen = CC(C)(S)[C@H](N)C(=O)O; αMeK = C[C@](N)(CCCCN)C(=O)O
recordedMetric: pStat3 HTRF (nM) IC50

binder	pStat3 HTRF (nM) IC50
XNTXQXXXXKNX (Ac-[Pen]-N-T-[W(7-Me)]-Q-[Pen]-Phe[4-(2-aminoethoxy)]-[2-Nal]-[a-MeOrn]-[Lys(Ac)]-N-[bA]-NH2; Pen-Pen disulfide) [SEQ ID NO: 278]	< 1 nM
XNTXXXXXXKNL (Ac-[Pen]-N-T-[W(7-Me)]-[Lys(Gly)]-[Pen]-Phe[4-(2-aminoethoxy)]-[2-Nal]-[a-MeLys]-[Lys(Ac)]-N-[(D)Leu]-NH2; Pen-Pen disulfide) [SEQ ID NO: 320]	< 1 nM

Consider the additional binder presented here.
Assign pStat3 HTRF (nM) IC50 to the following record: Ac-[Pen]NT[Trp(7-nPr)]K(Ac)[Pen][AEF][2Nal][αMeK]K(Ac)N[dL]-NH2 (disulfide 1-6 (inferred)) [SEQ ID NO: 285]
< 1 nM
